Catalogue of molecules with associated EC50
Target: human kappa opioid receptors (Homo sapiens, UniProt P41145)
Construct: expressed in transfected cells; host or cells: U2OS
Sequence (P41145 whole entry): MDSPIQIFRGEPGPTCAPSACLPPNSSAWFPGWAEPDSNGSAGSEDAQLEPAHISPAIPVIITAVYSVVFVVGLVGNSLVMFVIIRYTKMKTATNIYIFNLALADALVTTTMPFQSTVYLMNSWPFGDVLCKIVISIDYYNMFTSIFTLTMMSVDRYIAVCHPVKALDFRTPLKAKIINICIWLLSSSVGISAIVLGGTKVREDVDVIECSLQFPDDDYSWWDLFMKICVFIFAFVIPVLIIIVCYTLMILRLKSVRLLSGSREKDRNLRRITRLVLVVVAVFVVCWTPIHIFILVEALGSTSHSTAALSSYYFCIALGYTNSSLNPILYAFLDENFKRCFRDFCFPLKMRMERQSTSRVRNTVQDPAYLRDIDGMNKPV
Test: [35S]GTPγS stimulation, membranes from U2OS cells
Format: biochemical
Write the value in nM as a bare number.

As a guide, the following entries are already answered.
# molecule, EC50 (nM)
measured = [
    ("O=C(Cc1cccc(Cl)c1)N1CCN[C@@H]2COC[C@H](N3CCCC3)[C@H]21 (single isomer, unassigned) [Example 5A24A]", 384),
    ("Cc1cc(CC(=O)N2CCN[C@@H]3COC[C@H](N4CCCC4)[C@H]32)ccc1Cl (racemic)", 261),
    ("O=C(Cc1ccc(Cl)c(Cl)c1)N1CCN(S(=O)(=O)C2CC2)[C@@H]2COC[C@H](N3CCCC3)[C@H]21 (single isomer, unassigned) [Example 5A52A]", 1.7),
    ("O=C(Cc1cccc(C(F)(F)F)c1)N1CCN[C@@H]2COC[C@H](N3CCCC3)[C@H]21 (racemic)", 130),
]

Task: Consider the molecule CS(=O)(=O)N1CCN(C(=O)Cc2ccc(Cl)c(Cl)c2)[C@H]2[C@H]1COC[C@@H]2N1CCCC1 (racemic) [Example 5A44] . State its measured EC50.
Output: 6.7

Task: Please look at this molecule and report its EC50: CN(CC1CC1)[C@H]1COC[C@H]2NCCN(C(=O)Cc3ccc(Cl)c(Cl)c3)[C@@H]21 (racemic)
Output: 93

Task: # return recorded EC50 for entry O=C(Cc1ccc(Cl)c(Cl)c1)N1CCN(CC2CCC2)[C@@H]2COC[C@H](N3CCCC3)[C@H]21 (single isomer, unassigned) [Example 5A55A]
Output: 30

###

Biological target: UniProt:P41145
Test: β-arrestin coupling (PathHunter Detection Kit)
quantity.measured: pEC50
On this scale, pEC50 is minus log10 of a concentration expressed in M (mol/L).

# compound, assay.result
records = [
    ("CS(=O)(=O)N1CCN(C(=O)Cc2ccc(Cl)c(Cl)c2)[C@H]2[C@H]1COC[C@@H]2N1CCCC1 (racemic) [Example 5A44]", 5.21),
]

Task: Give a short answer stating reported pEC50 for O=C(Cc1ccc(Cl)c(Cl)c1)N1CCN(S(=O)(=O)C2CC2)[C@@H]2COC[C@H](N3CCCC3)[C@H]21 (racemic) [Example 5A52] .
Output: 5.48

Task: Give reported pEC50 value for Cc1ccc(CC(=O)N2CCN[C@@H]3COC[C@H](N4CCCC4)[C@H]32)cc1C(F)(F)F (racemic) [Example 5A47]
Output: 5.31

Task: Please supply the value of reported pEC50 for the item O=C(Cc1ccc(C(F)(F)F)cc1)N1CCN[C@@H]2COC[C@H](N3CCCC3)[C@H]21 (racemic) [Example 5A49]
Output: 4.96

Task: Dear colleague, please send me the reported pEC50 for COC(=O)N1CCN(C(=O)Cc2ccc(Cl)c(Cl)c2)[C@H]2[C@H]1COC[C@@H]2N1CCCC1 (racemic) [Example 5A67] when you can.
Output: 5.28

###

Listed next: entries and their corresponding pEC50.
Molecular target: human kappa opioid receptors (Homo sapiens)
Construct: expressed in transfected cells; host or cells: U2OS
Experiment: [35S]GTPγS stimulation, membranes from U2OS cells
Format: biochemical
Scale note: pEC50 = -log10(concentration in M).

Consider the worked cases shown below.
# compound, pEC50
rows = [
    ("O=C(Cc1ccc(C(F)(F)F)cc1)N1CCN[C@@H]2COC[C@H](N3CCCC3)[C@H]21 (racemic)", 6.96),
    ("O=C(Cc1ccc(Cl)c(Cl)c1)N1CCN(CC2CCC2)[C@H]2COC[C@@H](N3CCCC3)[C@@H]21 (single isomer, unassigned) [Example 5A55B]", 7.89),
    ("CN1CCN(C(=O)Cc2ccc(Cl)c(Cl)c2)[C@H]2[C@H]1COC[C@@H]2N1CCCC1 (racemic)", 7.34),
    ("O=C(Cc1ccc(Cl)c(Cl)c1)N1CCN(Cc2ccccc2)[C@@H]2COC[C@H](N3CCCC3)[C@H]21 (single isomer, unassigned) [Example 5A53A]", 7.74),
    ("O=C(Cc1ccc(Cl)cc1)N1CCN[C@@H]2COC[C@H](N3CCCC3)[C@H]21 (racemic)", 6.25),
]

Task: Answer with reported pEC50 of `CC(C)CN1CCN(C(=O)Cc2ccc(Cl)c(Cl)c2)[C@H]2[C@H]1COC[C@@H]2N1CCCC1`
Output: 7.85

###

Target: kappa opioid receptor (PathHunter U2OS hOPRK1 β-arrestin cell line) (Homo sapiens, UniProt P41145)
Construct: host or cells: U2OS (PathHunter U2OS hOPRK1 β-arrestin cell line)
Sequence (P41145 whole entry): as above
Assay: β-arrestin coupling (PathHunter Detection Kit)
Assay type: cell-based
Settings: U2OS, read-out: β-arrestin coupling % efficacy at 10 μM
hey, just use true if measured Emax at 10 µM is less than 40%, otherwise false

Study these solved cases before continuing.
# compound, assigned.category
rows = [
    ("O=C(Cc1ccc(Cl)c(Cl)c1)N1CCN(CC2CCC2)[C@H]2COC[C@@H](N3CCCC3)[C@@H]21 (single isomer, unassigned) [Example 5A55B]", "false"),
    ("O=C(Cc1cccc(Cl)c1)N1CCN[C@H]2COC[C@@H](N3CCCC3)[C@@H]21 (single isomer, unassigned) [Example 5A24B]", "true"),
    ("O=C(Cc1ccc(Cl)c(Cl)c1)N1CCN(S(=O)(=O)C2CC2)[C@H]2COC[C@@H](N3CCCC3)[C@@H]21 (single isomer, unassigned) [Example 5A52B]", "true"),
]

Task: Given the entry CCCN1CCN(C(=O)Cc2ccc(Cl)c(Cl)c2)[C@H]2[C@H]1COC[C@@H]2N1CCCC1 (racemic) , would its reported Emax at 10 µM be below 40%?
Output: false

###

Listed next: entries and their corresponding Emax at 10 µM.
Biological target: kappa opioid receptor (PathHunter U2OS hOPRK1 β-arrestin cell line) (Homo sapiens, UniProt P41145)
Construct: host or cells: U2OS (PathHunter U2OS hOPRK1 β-arrestin cell line)
Assay: β-arrestin coupling (PathHunter Detection Kit)
Type: cell-based
Conditions: U2OS, read-out: β-arrestin coupling % efficacy at 10 μM
Numeric only. Scale: %

Check out these entries, answers already filled in.
# compound, quantity.measured, assay.result
rows = [
    ("CS(=O)(=O)N1CCN(C(=O)Cc2ccc(Cl)c(Cl)c2)[C@H]2[C@H]1COC[C@@H]2N1CCCC1 (single isomer, unassigned) [Example 5A44A]", "Emax at 10 µM", 80),
    ("O=C(Cc1ccc(Cl)c(Cl)c1)N1CCN(CC2CCCC2)[C@@H]2COC[C@H](N3CCCC3)[C@H]21 (racemic)", "Emax at 10 µM", 20),
]

Task: Specify reported Emax at 10 µM for the compound shown: O=C(Cc1ccc(Cl)c(Cl)c1)N1CCN(Cc2ccccc2)[C@H]2COC[C@@H](N3CCCC3)[C@@H]21 (single isomer, unassigned) [Example 5A53B]
Output: 80

###

Molecular target: human kappa opioid receptors (Homo sapiens)
Construct: expressed in transfected cells; host or cells: U2OS
Assay: [35S]GTPγS stimulation, membranes from U2OS cells
Assay type: biochemical
Conditions: read-out: GTPγS stimulation % efficacy
# reported Emax; entries follow
Please reply with the bare figure in % and do not write the unit itself.

Some solved entries appear below for comparison.
# compound, Emax (%)
data = [
    ("CC(C)CN1CCN(C(=O)Cc2ccc(Cl)c(Cl)c2)[C@H]2[C@H]1COC[C@@H]2N1CCCC1 [Example 5A71]", 93),
    ("O=C(Cc1ccc(Cl)c(Cl)c1)N1CCN(Cc2ccccc2)[C@H]2COC[C@@H](N3CCCC3)[C@@H]21 (single isomer, unassigned) [Example 5A53B]", 58),
]

Note: attention shifts to another entry.
Task: Report measured Emax on human kappa opioid receptors (Homo sapiens); entry: O=C(Cc1cccc(C(F)(F)F)c1)N1CCN[C@@H]2COC[C@H](N3CCCC3)[C@H]21 (racemic) [Example 5A26]
Output: 108

###

Molecular target: kappa opioid receptor (PathHunter U2OS hOPRK1 β-arrestin cell line) (Homo sapiens, UniProt P41145)
Construct: host or cells: U2OS (PathHunter U2OS hOPRK1 β-arrestin cell line)
Experiment: β-arrestin coupling (PathHunter Detection Kit)
Assay type: cell-based
Conditions: U2OS, read-out: β-arrestin coupling % efficacy at 10 μM
quantity.measured: Emax at 10 µM (%)
Only the number, expressed in %, is required.

Here are 5 compounds together with their reported answers.
# compound, quantity.unit, Emax at 10 µM
data = [
    ("O=C(Cc1ccc(Cl)c(C(F)(F)F)c1)N1CCN[C@@H]2COC[C@H](N3CCCC3)[C@H]21 (racemic)", "%", 100),
    ("O=C(Cc1ccc(Cl)c(Cl)c1)N1CCN(Cc2ccccc2)[C@@H]2COC[C@H](N3CCCC3)[C@H]21 (single isomer, unassigned) [Example 5A53A]", "%", 80),
    ("O=C(Cc1ccc(Cl)c(Cl)c1)N1CCN(CC2CCC2)[C@@H]2COC[C@H](N3CCCC3)[C@H]21 (racemic)", "%", 40),
    ("O=C(Cc1ccc(Cl)cc1)N1CCN[C@@H]2COC[C@H](N3CCCC3)[C@H]21 (racemic)", "%", 20),
    ("O=C(Cc1ccc(Cl)c(Cl)c1)N1CCN(Cc2ccccc2)[C@@H]2COC[C@H](N3CCCC3)[C@H]21 (racemic) [Example 5A53]", "%", 80),
]

Task: Return Emax at 10 µM for the following compound: Cc1cc(CC(=O)N2CCN[C@@H]3COC[C@H](N4CCCC4)[C@H]32)ccc1Cl (racemic)
Output: 20

These measurements were taken from patent US11091497B2.
